Cited source: the OligoGym collection

- TARGET: Tau
- METHOD SUMMARY: rat primary cortical neurons, FLIPR, 25 uM ASO
Bases are written 5' to 3'; sugars and linkages follow in the same order, as letters with counts (s phosphorothioate, o phosphodiester; PS: all linkages phosphorothioate). The collection does not say whether C is 5-methylated. l = locked nucleic acid (LNA); d = 2'-deoxy (DNA)
RECORDED ENDPOINT: calcium oscillation score

>>> result("CACCCACTTTCCTAATTCCC (sugars l1 d17 l2, PS)")
"55.1 % of control"
>>> result("TGGTCAAGGCTTTGGG (sugars l3 d10 l3, PS)")
"0 % of control"
>>> result("ACTTAAATTTATTTTCTTTT (sugars l4 d12 l4, PS)")
"55.8 % of control"
>>> result("ATATTCCACACATAAACAA (sugars l4 d11 l4, PS)")
"62.8 % of control"
>>> result("ATACTCAAATTCTTCCTTT (sugars l3 d12 l4, PS)")
"74 % of control"
>>> result("GCGACTTGTACACGAT (sugars l3 d10 l3, PS)")
"32.2 % of control"
>>> result("AGGTCAACTGGTTTGTAGAC (sugars l3 d14 l3, PS)")
"0 % of control"
>>> result("TCCACAAACCAACTCAA (sugars l3 d10 l4, PS)")
"99.5 % of control"
>>> result("CCTAATCCTGTGCTT (sugars l3 d9 l3, PS)")
"58.2 % of control"
>>> result("ATTCATAAATGACTATACTT (sugars l3 d14 l3, PS)")
"68.5 % of control"
>>> result("CCTAATAAAAACAATACTA (sugars l4 d11 l4, PS)")
"62.3 % of control"
>>> result("ATAAATTTGAACCCCT (sugars l3 d9 l4, PS)")
"49.7 % of control"
>>> result("GCTTCAGTCCTAATC (sugars l3 d9 l3, PS)")
"11.5 % of control"
>>> result("CCACTACAAGCTCCACAT (sugars l2 d14 l2, PS)")
"50 % of control"
>>> result("TTATTTCCAAATTCACTTTT (sugars l2 d2 l2 d10 l4, PS)")
"123 % of control"
>>> result("ACAAACCAACTCAACATTAC (sugars l4 d12 l4, PS)")
"84.6 % of control"
>>> result("ATTTAGTCACCATCACT (sugars l3 d10 l4, PS)")
"102 % of control"
>>> result("CGAACTGCGAGGAGCA (sugars l3 d10 l3, PS)")
"2.71 % of control"
>>> result("AATAGCAAACAGGAT (sugars l3 d9 l3, PS)")
"3.83 % of control"
>>> result("CCTTTGAAAGTCCTTT (sugars l4 d8 l4, PS)")
"106 % of control"
>>> result("GTGACAGAAGAGACGT (sugars l3 d10 l3, PS)")
"0 % of control"
>>> result("TATTTCCAAATTCACTTTTA (sugars lldldldddddddddlldll, PS)")
"141 % of control"
>>> result("GGTGCTCTGGTCAA (sugars l3 d8 l3, PS)")
"102 % of control"
>>> result("TTTATAGGTGCATAGT (sugars l2 d10 l4, PS)")
"0 % of control"
>>> result("CCCTCACTTTTTATTCAAC (sugars l2 d14 l3, PS)")
"76 % of control"
>>> result("GTCTTGGCTTTGGCGT (sugars l3 d10 l3, PS)")
"20.9 % of control"
>>> result("CACCCTTACACATAGC (sugars l3 d11 l2, PS)")
"60.6 % of control"
>>> result("CCCTAAACCATGATCT (sugars l3 d10 l3, PS)")
"89.7 % of control"
>>> result("TCCTCCATTGTAACTACT (sugars l2 d14 l2, PS)")
"59.4 % of control"
>>> result("TCTTATTGCTTTCCAAT (sugars l3 d10 l4, PS)")
"101 % of control"
>>> result("CTTTATTTCCAAATTCACTT (sugars l3 d11 l1 d2 l3, PS)")
"112 % of control"
>>> result("GGCCTGATCACAAACC (sugars l3 d10 l3, PS)")
"132 % of control"
>>> result("TCGATGCTGCCGGT (sugars l3 d8 l3, PS)")
"13 % of control"
>>> result("TCCTCACTTTACACATTAAA (sugars l4 d14 l2, PS)")
"70.3 % of control"
>>> result("CTAATTACATTTTTTCTTTT (sugars l4 d12 l4, PS)")
"60.1 % of control"
